- System: MS2 coat protein
- experiment.summary: apparent KD of MS2 coat protein; designed switch direction (-1 OFF switch, 1 ON switch): -1; higher = weaker reporter binding
- test.conditions: input ligand: FMN 200 uM
Each entry below lists one item and its recorded apparent KD of MS2 coat protein value.
Record the value in nM, omitting the unit from your answer.

INSERT INTO measurements (seq, reading) VALUES
  ('AUUAAACGUGUAGGAUAUGCGUGGCGAAGCUAUGCAGAAGGACAUGAGGAUCACCCAUGUUCUAGCGUCUGCGUACAGAUGCUA [JL eng1 1.35 mod 5] (Eterna round: R96, puzzle: Exclusion NG 1)', 25.1),
  ('UUCGGCGGAGGAUAUACAGUUUUUUGUUGAAUCGGCGGGAAACAUGAGGAUCACCCAUGUAGAAGGUUGUUGAA [-18.7, -16.7 kcal, A 27%] (Eterna round: R97, puzzle: Exclusion 2)', 63.3),
  ('UCGCUCCGUGUAGGAUAUCGCCGUACGAUGCGGCGAGAAGGACAUGAGGAUCACCCAUGUAUGUUAUUAUCACGCGUGGCGCAA [Design 62] (Eterna round: R96, puzzle: Exclusion NG 1)', 21.3);

IN: What apparent KD of MS2 coat protein value was documented for this sequence, CUAACAUGCUGGUGAUCAUACAUGAGGAUCACCCAUGUAACAAGCUUUUUGCUCGUCUUAAUUUAAUUGAUUACUAG [Stov1/8-A3] (Eterna round: R97, puzzle: Sensor, turn-off variant 1) ?
OUT: 88.9

IN: Tell me the measured apparent KD of MS2 coat protein of GGUAUGGCCACAGGAUAUUGAGCCACAUGAGGAUCACCCAUGUGAGGACGUAGAAUCGCCUGGCCCAAGAAGGGUGAAGCCCAU [Eternabot solution 4] (Eterna round: R96, puzzle: Exclusion NG 2) , please.
OUT: 17.1
